Target: T1, Rnd2 GTPase (residues 1-227), loaded with GMPPNP (UniProt P52198 1-227)
T1 sequence (looked up): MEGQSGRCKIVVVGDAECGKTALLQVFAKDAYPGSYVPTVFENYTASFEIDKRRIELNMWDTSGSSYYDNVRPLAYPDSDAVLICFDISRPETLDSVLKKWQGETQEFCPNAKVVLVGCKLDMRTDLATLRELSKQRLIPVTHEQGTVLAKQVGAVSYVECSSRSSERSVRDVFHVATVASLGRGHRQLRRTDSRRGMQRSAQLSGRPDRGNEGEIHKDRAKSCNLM
Experiment: ITC
pKd: −log10 of the molar value.
property.label: pKd

The cases that follow already have their pKd on record.
1) plexin-B1 RBD L1815Y (domain or fragment) YRPLTLNALLAVGPGAGEAQGVPVKVLDCDTISQAKEKMLDQLYKGVPLTQRPDPRTLDVEWRSGVAGHYILSDEDVTSEVQGLWRRLNTLQHYKVPDGATVALVPC : 5.01
2) plexin-C1 RBD K1267L (domain or fragment) TVALNVVFEKIPENESADVCRNISVNVLDCDTIGQAKEKIFQAFLSKNGSPYGLQLNEIGLELQMGTRQLELLDIDSSSVILEDGITKLNTIGHYEISNGSTIKVFKK : 4.95
3) plexin-D1 Rho GTPase binding domain (RBD), residues 1553-1678 (domain or fragment, human, UniProt Q9Y4D7 1553-1678, looked up) AKPRNLNVSFQGCGMDSLSVRAMDTDTLTQVKEKILEAFCKNVPYSQWPRAEDVDLEWFASSTQSYILRDLDDTSVVEDGRKKLNTLAHYKIPEGASLAMSLIDKKDNTLGRVKDLDTEKYFHLVL : 4.78

[a] plexin-C1 RBD T1264V/R1265V (domain or fragment) TVALNVVFEKIPENESADVCRNISVNVLDCDTIGQAKEKIFQAFLSKNGSPYGLQLNEIGLELQMGVVQKELLDIDSSSVILEDGITKLNTIGHYEISNGSTIKVFKK
[b] plexin-B1 RBD L1815K (domain or fragment) YRPLTLNALLAVGPGAGEAQGVPVKVLDCDTISQAKEKMLDQLYKGVPLTQRPDPRTLDVEWRSGVAGHKILSDEDVTSEVQGLWRRLNTLQHYKVPDGATVALVPC
Enquiry: # min-compare on pKd between a and b Lab log: write the label of the selected item as the result.
Return: b
